Reference source for all entries: ChEMBL document CHEMBL5614403

Assay: Selectivity index, ratio of IC50 for human MCF-10A cells to ratio of IC50 for human MCF-7 cells
Type: toxicity
Details: MCF-10A cells versus MCF-7 cells, read-out: Selectivity Index
Assay endpoint: selectivity ratio

INSERT INTO measurements (chem_smiles, assay_endpoint, experimental_value) VALUES
  ('CCCCCCCCCCCC[n+]1ccn(-c2cc3cccnc3c3ncccc23)c1.[Br-]', 'selectivity ratio', 4.1);

----------
System: MCF-10A
Test: Cytotoxicity against human MCF-10A cells assessed as cell viability incubated for 72 hrs by MTT assay
Format: functional, cell-based
# if measured IC50 < 40 µM: true (1)  # else: false (0)

INSERT INTO measurements (chem_smiles, answer_label) VALUES
  ('CCCCCCCC[n+]1ccn(-c2cc3cccnc3c3ncccc23)c1', 'true (1)'),
  ('c1cnc2c(c1)cc(-n1ccnc1)c1cccnc12', 'false (0)'),
  ('CCCC[n+]1ccn(-c2cc3cccnc3c3ncccc23)c1', 'false (0)'),
  ('CCCCCCCCCCCC[n+]1ccn(-c2cc3cccnc3c3ncccc23)c1.[Br-]', 'false (0)'),
  ('Cc1cc(C)c(C[n+]2ccn(-c3cc4cccnc4c4ncccc34)c2)c(C)c1', 'true (1)'),
  ('Cc1c(C)c(C)c(C[n+]2ccn(-c3cc4cccnc4c4ncccc34)c2)c(C)c1C', 'true (1)'),
  ('c1ccc(C[n+]2ccn(-c3cc4cccnc4c4ncccc34)c2)cc1', 'false (0)');

----------
Assay: Selectivity index, ratio of IC50 for human MCF-10A cells to ratio of IC50 for human MDA-MB-231 cells
Format: toxicity
Settings: MCF-10A cells versus MDA-MB-231 cells, read-out: Selectivity Index
Assay endpoint: selectivity ratio

INSERT INTO measurements (chem_smiles, experimental_value) VALUES
  ('CCCCCCCCCCCC[n+]1ccn(-c2cc3cccnc3c3ncccc23)c1.[Br-]', 5);
